- Study target: T1, purified recombinant human Napi2b antigen consisting of Napi2b-extracellular-loop2 expressed as … (human, UniProt O95436 234-362, limits assumed)
- T1 construct: Expressed in Expi-HEK293 cells; also called immobilized human NaPi2B; not shown: Fc part; 6-His tag
- T1 sequence: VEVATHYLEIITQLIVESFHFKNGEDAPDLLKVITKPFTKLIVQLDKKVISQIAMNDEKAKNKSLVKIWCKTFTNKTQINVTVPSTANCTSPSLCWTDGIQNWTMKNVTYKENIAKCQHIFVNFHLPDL
- Assay comment: ELISA on the isolated immobilized protein; table column Binding KD (nmol/L), ELISA
Measure name: Kd (nM)

{"Binder": "AV-29 antibody (antibody, human IgG1, kappa, L234A L235A, V domains shown) VH: EVQLVQSGAEVVKPGASVKMSCKASGYTFTGYNILWVKQAPGQGLEWIGAIYPGNGGTSYKQKFRGRATITADTSTSTVYMELSSLRSEDSAVYYCARGEIARATFAYWGQGTLVTVSS VL: DIQMTQSPSSLSASVGDRVTITCSASQDIGNFLNWYQQKPGKTVKVLIYYASSLYSGVPSRFSGSGSGTDYTLTISSLQPEDFATYYCQQYSKLPLTFGQGTKLELKR", "Measure name": "Kd", "Measurement": 0.082}
